Where do these numbers come from? They come from patent US20240180900A1.

test: preliminary PK in mCRPC participants (Phase 1/2); type: in vivo, human; details: male, human, plasma, oral, 300 mg, 300 mg QD, Mean (CV %); read-out: AUC0-24 Day 1

Structure smiles string	AUC(0-t) [µg·h/mL]
COc1cc(O[C@H]2C(C)(C)[C@H](NC(=O)c3ccc(N4CCC(CN5CCN(c6ccc(C(=O)N[C@H]7CCC(=O)NC7=O)c(F)c6)CC5)CC4)cc3)C2(C)C)ccc1C#N	2.22

* * *

Assay: food/PPI effect on single-dose PK in healthy volunteers (phase 1)
Format: in vivo, human
Settings: male, human, plasma, oral, 300 mg, 300 mg alone, fed; read-out: AUClast, Geometric LS Mean
Description: The primary endpoints were AUCinf and Cmax. Additional parameters measured included AUClast and Tmax. This phase 1, open-label study included a crossover, fed/fasted cohort and a fixed-sequence PPI cohort. […] The effect of food and a PPI on the PK of Compound A was evaluated in healthy participants. […]

Molecule	AUC(0-t) (ng·h/mL)
COc1cc(O[C@H]2C(C)(C)[C@H](NC(=O)c3ccc(N4CCC(CN5CCN(c6ccc(C(=O)N[C@H]7CCC(=O)NC7=O)c(F)c6)CC5)CC4)cc3)C2(C)C)ccc1C#N [Compound A]	10600
